The measurements presented in this section are drawn from BigSolDB 2.1.

Conditions: in isobutanol, 293.05 K
measured quantity: solubility (mole fraction)
Respond numerically, and do not add a unit to the figure.

query: Answer with reported solubility (mole fraction) of CCOC(=O)C1=C(C)NC(C)=C(C(=O)OCC)C1
result: 0.00283

---

Settings: in acetone, 272.15 K
measured quantity: solubility (mole fraction)

query: Identify the reported solubility (mole fraction) for the following entry. CCOC(=O)C1=C(C)NC(C)=C(C(=O)OCC)C1
result: 0.00112

---

Settings: in n-butanol, 298.15 K
measured quantity: solubility (mole fraction)
Hey, just send me the number, nothing else.

query: Could you please provide reported solubility (mole fraction) for CCOC(=O)C1=C(C)NC(C)=C(C(=O)OCC)C1 ? Thanks!
result: 0.00262
